We begin with a simple list: items and their reported MIC.
System: Streptococcus faecalis ATCC 10541
Experiment: "In vitro" MIC, Streptococcus faecalis
Type: cell-based
Details: Enterococcus faecalis, ATCC10541; Streptococcus faecalis ATCC 10541; dextrose agar, 37° C., 20 hours; read-out: "In vitro" MIC

{"cpd smiles": "C=Cn1cc(C(=O)O)c(=O)c2cc(F)c(-n3cccc3)cc21", "measurement unit": "µg/mL", "MIC": 16}
{"cpd smiles": "O=C(O)c1cn(CC2CC2)c2cc(-n3cccc3)c(F)cc2c1=O", "measurement unit": "µg/mL", "MIC": 16}
{"cpd smiles": "CNn1cc(C(=O)O)c(=O)c2cc(F)c(-n3cccc3)cc21", "measurement unit": "µg/mL", "MIC": 4}
{"cpd smiles": "O=C(O)c1cn(CCF)c2cc(-n3cccc3)c(F)cc2c1=O", "measurement unit": "µg/mL", "MIC": 0.5}
{"cpd smiles": "Cn1cc(C(=O)O)c(=O)c2cc(F)c(-n3cccc3)cc21", "measurement unit": "µg/mL", "MIC": 32}
